Test system: SNB-19 CNS
Assay: NCI tumour cell line growth inhibition, 48 h
Answer each item with its documented TGI.

Please provide the recorded TGI for Oc1c(N=Nc2ccccc2)c2ccccc2c2ccc3ccccc3c12 , tested on SNB-19 CNS.
> 100 µM

Please provide the recorded TGI for COC1=CC(=O)[C@]2(C)[C@H](C1=O)C(C)[C@H]2c1ccccc1 (stereo partly drawn) , tested on SNB-19 CNS.
> 100 µM

Please provide the recorded TGI for Cc1ccc(N2C(=O)/C(=C/c3ccc(N(CCC#N)CCC#N)cc3C)N=C2c2cc([N+](=O)[O-])ccc2Cl)cc1 , tested on SNB-19 CNS.
> 100 µM

Please provide the recorded TGI for CC[N+]1(C)CCC(O)(/C=C/c2ccc(Cl)cc2)C(C(=O)/C=C/c2ccc(Cl)cc2)C1 (stereo not drawn) , tested on SNB-19 CNS.
17.4 µM

Please provide the recorded TGI for COc1ccc2c(c1)CC1c3c(cc4c(c3-2)OCO4)CCN1C (stereo not drawn) , tested on SNB-19 CNS.
> 100 µM

Please provide the recorded TGI for OCCNCCNc1c2ccccc2nc2oc3ccccc3c12 , tested on SNB-19 CNS.
36.2 µM

Please provide the recorded TGI for COc1ccc2c(c1)N=C1CSC(c3c(Cl)cccc3[N+](=O)[O-])N1C2 (stereo not drawn) , tested on SNB-19 CNS.
> 100 µM

Please provide the recorded TGI for Cc1ccc(C2=C(c3ccccc3)C(Br)(c3ccccc3)C(c3ccccc3)=C2c2ccc(C)cc2)cc1 , tested on SNB-19 CNS.
> 100 µM

---

Answer each item with its documented TGI.
Test system: U251 CNS
Assay: NCI tumour cell line growth inhibition, 48 h

What TGI value was documented for this compound, O=C1C[C@@H]2CCCC[C@@H]2C12SCCS2 ?
> 100 µM

What TGI value was documented for this compound, Clc1nc(Cl)c(Cc2ccccc2)c(Cl)n1 ?
33.8 µM

What TGI value was documented for this compound, COC(=O)C1(C)CCCC2(C)C3CCC4CC3(C=C4CO)CCC12 (stereo unspecified) ?
> 100 µM

What TGI value was documented for this compound, O=P1(O)c2ccccc2Nc2cc(C(F)(F)F)ccc21 ?
> 100 µM

What TGI value was documented for this compound, CC[N+]1(C)CCC(O)(/C=C/c2ccc(Cl)cc2)C(C(=O)/C=C/c2ccc(Cl)cc2)C1 (stereo unspecified) ?
20.8 µM

What TGI value was documented for this compound, CSC(=S)OC1C(CO[Si](C)(C)C(C)(C)C)OC2OC(C)(C)OC21 (stereo unspecified) ?
31.8 µM

What TGI value was documented for this compound, OC(CNC1CCCC1)Cn1c2ccccc2c2ccccc21 (stereo unspecified) ?
56.6 µM

What TGI value was documented for this compound, COc1cc([C@@H]2OC(=O)C3C2C(=O)O[C@H]3c2cc(OC)c(OC)c(OC)c2)cc(OC)c1OC (stereo partly specified) ?
> 100 µM

What TGI value was documented for this compound, Cc1csc2nc3[nH]ncc3c(=O)n12 ?
> 100 µM

What TGI value was documented for this compound, CCN(CC)c1cccc2c1C1(O)CCC3(CC21)OCCCCO3 (stereo unspecified) ?
> 100 µM

What TGI value was documented for this compound, CC1=C(C(=O)Nc2ccc(F)c(Cl)c2)C(c2cccc(Oc3ccccc3)c2)NC(=O)N1 (stereo unspecified) ?
26.2 µM
